Target: monoclonal antibody 21-4-3
Experiment: SPR, 21-4-3 captured via anti-mouse IgG, 500 nM
measurement label: binding as % of Reference Sequence (=100%)
// units = %; emit number, no label

binder	recorded number
Nanobody or Nanobody construct of SEQ ID NO: 78 (VHH) VHH: EVQLVESGGGLVRPGGSLRLSCAASRSIGRLDRMGWYRHRPGEPRELVATITGGSSINYGDSVKGRFTISIDNSKNTVYLQMNSLRPEDTAVYYCNFNKYVTSRDTWGQGTLVTVSS	1

Now for the binder whose binding as % of Reference Sequence (=100%) we want.
According to the records, this binder Nanobody or Nanobody construct of SEQ ID NO: 47 (VHH) VHH: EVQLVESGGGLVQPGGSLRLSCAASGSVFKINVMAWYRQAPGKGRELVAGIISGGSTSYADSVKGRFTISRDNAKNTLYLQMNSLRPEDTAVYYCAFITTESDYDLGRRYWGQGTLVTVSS displays binding as % of Reference Sequence (=100%) of 4
